Entry source: patent US9540361B2

Target: estrogen receptor alpha (Homo sapiens, UniProt P03372)
Construct: endogenous in cells; host or cells: T47D human breast cancer cells (ATCC)
Test: ERα downregulation assay in T47D breast cancer cells (ERα ELISA)
Assay type: cell-based
Conditions: downregulation of ERα relative to fulvestrant (100%), 1E-5 M, 24 hours, negative = upregulation
Source text: More specifically, this in vitro bioassay is used to determine the efficacy (fraction of maximal response) of the compound by comparing the data for this compound with those of the reference compound ICI 182,780 (fulvestrant) in the same test (downregulation of fulvestrant is 100% by definition). A more detailed description of the method used is as follows. Cell culture. […]
Define the label as Fulfilled when DR (%) is strictly less than 80% and as Not fulfilled in all remaining cases.

Worked examples, 5 molecules total:
Prompt: Answer whether the molecule `CCCN1CC(Oc2ccc(C(=O)c3c(-c4ccccc4C)noc3-c3ccc(O)cc3)cc2)C1.Cl` has DR (%) strictly less than 80%
Response: Not fulfilled

Prompt: A record lists `C=CCN1CC(Oc2ccc(-c3c(-c4ccc(O)cc4)sc4cc(O)ccc34)cc2)C1.O=C(O)C(F)(F)F` . Is its DR (%) below 80%?
Response: Fulfilled

Prompt: Answer whether the molecule `CCCN1CC(Oc2ccc(-c3c(-c4ccc(O)cc4)sc4cc(O)ccc34)cc2)C1.O=C(O)C(F)(F)F` has DR (%) strictly less than 80%
Response: Fulfilled

Prompt: DR (%) under 80%? Item: CCCN1CC(Oc2ccc(C(=C(CC)c3ccccc3)c3cccc(O)c3)cc2)C1 (mixture of isomers)
Response: Fulfilled

Prompt: Could you please tell me whether DR (%) recorded for `CCCN1CC(Oc2ccc(C(=C(CC)c3ccccc3)c3ccccc3)cc2)C1.O=C(O)C(F)(F)F` is less than 80%?
Response: Fulfilled

---
Prompt: Criterion: DR (%) strictly below 80%. Is it met by `CCCN1CC(Oc2ccc(C(=O)c3c(-c4ccc(F)c(C)c4)sc4cc(O)ccc34)cc2)C1.Cl` ?
Response: Not fulfilled

Prompt: Confirm or reject: DR (%) of `CCCN1CC(Oc2ccc(-c3c(-c4cccc(C)c4C)noc3-c3ccc(O)cc3)cc2)C1.O=C(O)C(F)(F)F` lies strictly below 80%
Response: Not fulfilled
